biological target: Adenosine receptor A2a (Homo sapiens, UniProt P29274); experiment: Displacement of [3H]ZM241385 from human adenosine A2A receptor expressed in CHO cell membranes at 1 uM after 60 mins by scintillation counting method relative to control
Sequence (P29274 whole entry): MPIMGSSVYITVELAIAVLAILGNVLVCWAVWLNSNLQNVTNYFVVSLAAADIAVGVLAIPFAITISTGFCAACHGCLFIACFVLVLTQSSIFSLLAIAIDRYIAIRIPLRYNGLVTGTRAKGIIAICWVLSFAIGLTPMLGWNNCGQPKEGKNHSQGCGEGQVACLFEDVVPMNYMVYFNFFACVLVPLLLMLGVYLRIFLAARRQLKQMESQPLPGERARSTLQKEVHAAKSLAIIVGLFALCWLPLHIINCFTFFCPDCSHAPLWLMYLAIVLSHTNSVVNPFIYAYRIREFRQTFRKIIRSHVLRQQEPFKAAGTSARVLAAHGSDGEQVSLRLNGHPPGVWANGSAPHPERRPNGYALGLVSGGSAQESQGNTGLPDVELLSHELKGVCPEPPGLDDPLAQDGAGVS
property_name: inhibition (%)

{"sample_smiles": "O=C(Cc1ccccc1)Nc1nccn2cc(-c3ccccc3)nc12", "measured_result": 37}

I: O=C(Nc1nc(-c2ccccc2)cn2cc(-c3ccccc3)nc12)c1ccc(F)cc1
II: Nc1nccn2cc(-c3ccco3)nc12
INPUT: Select one: I or II . Criterion: greater recorded inhibition. Refer to your chosen entry by its label in the reply.
OUTPUT: II

----------
biological target: Adenosine receptor A2b (Homo sapiens); test: Antagonist activity at human A2B receptor expressed in CHO cells assessed as inhibition of NECA-stimulated cAMP production at 1 uM by [3H]cAMP competition binding based scintillation counting method relative to control; format: functional, cell-based
property_name: inhibition (%)

Some compounds with known inhibition results, for comparison:
{"sample_smiles": "Nc1nc(Br)cn2cc(-c3ccco3)nc12", "measurement_target": "Adenosine receptor A2b (Homo sapiens)", "unit_name": "%", "measured_result": 29}
{"sample_smiles": "Cc1ccc(C(=O)Nc2nccn3cc(-c4ccccc4)nc23)cc1", "measurement_target": "Adenosine receptor A2b (Homo sapiens)", "unit_name": "%", "measured_result": 10}
{"sample_smiles": "COc1cccc(-c2cn3cc(-c4ccccc4)nc3c(N)n2)c1", "measurement_target": "Adenosine receptor A2b (Homo sapiens)", "unit_name": "%", "measured_result": 30}
{"sample_smiles": "COc1ccc(-c2cn3cc(-c4ccccc4)nc3c(N)n2)cc1", "measurement_target": "Adenosine receptor A2b (Homo sapiens)", "unit_name": "%", "measured_result": 16}

a: Cc1ccc(C(=O)Nc2nc(-c3ccccc3)cn3cc(-c4ccccc4)nc23)cc1
b: O=C(Nc1nccn2cc(-c3ccco3)nc12)c1ccccc1
c: Nc1nccn2cc(-c3ccccc3)nc12
d: Nc1nc(-c2ccc(Cl)cc2)cn2cc(-c3ccccc3)nc12
INPUT: Order the records so the highest inhibition appears first and the lowest last. Lab note: record answer as labels in requested order.
OUTPUT: c, a, d, b

A: O=C(c1ccccc1)N(C(=O)c1ccccc1)c1nccn2cc(-c3ccccc3)nc12
B: Nc1nc(-c2ccco2)cn2cc(-c3ccccc3)nc12
INPUT: Select one: A or B . Criterion: greater recorded inhibition. Refer to your chosen entry by its label in the reply.
OUTPUT: B
(B: 13%, A: 3%)

----------
target: Adenosine receptor A3 (Homo sapiens, UniProt P0DMS8); assay: Antagonist activity at human A3 receptor expressed in CHO cells assessed as inhibition of CI-IB-MECA-mediated inhibition of cAMP production by [3H]cAMP competition binding based scintillation counting method
Sequence (P0DMS8 whole entry, looked up): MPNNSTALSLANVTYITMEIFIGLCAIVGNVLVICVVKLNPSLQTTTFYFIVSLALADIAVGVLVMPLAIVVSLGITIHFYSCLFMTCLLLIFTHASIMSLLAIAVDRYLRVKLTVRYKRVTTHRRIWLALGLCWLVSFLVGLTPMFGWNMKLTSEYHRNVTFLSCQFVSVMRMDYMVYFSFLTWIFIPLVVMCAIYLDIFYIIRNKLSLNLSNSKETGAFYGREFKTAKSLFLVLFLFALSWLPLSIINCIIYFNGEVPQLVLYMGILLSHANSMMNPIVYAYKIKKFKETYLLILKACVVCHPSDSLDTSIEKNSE
pIC50: −log10 of the molar value.
property_name: pIC50

{"sample_smiles": "O=C(Nc1nc(-c2ccccc2)cn2cc(-c3ccccc3)nc12)c1ccccc1", "measurement_target": "Adenosine receptor A3 (Homo sapiens, UniProt P0DMS8)", "pIC50": 6.63}

I: O=C(Nc1nccn2cc(-c3ccccc3)nc12)c1ccccc1
II: COc1ccc(C(=O)Nc2nc(-c3ccccc3)cn3cc(-c4ccccc4)nc23)cc1
INPUT: Select one: I or II . Criterion: greater recorded pIC50. Refer to your chosen entry by its label in the reply.
OUTPUT: II
(II: 7.14, I: 6.79)
